Data provenance is patent US20250313574A1.

# system_tested: Recombinant human CD33 protein (Homo sapiens (Human))
# Sequence (P20138 18-259): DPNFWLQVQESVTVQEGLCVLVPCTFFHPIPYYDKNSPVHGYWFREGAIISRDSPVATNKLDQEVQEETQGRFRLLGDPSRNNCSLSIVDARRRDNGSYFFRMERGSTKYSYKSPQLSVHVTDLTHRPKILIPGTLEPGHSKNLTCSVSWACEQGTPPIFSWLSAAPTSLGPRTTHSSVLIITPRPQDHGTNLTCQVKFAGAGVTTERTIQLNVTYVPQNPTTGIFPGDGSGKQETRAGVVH
# measurement_description: CD33 competitive binding assay for HTS drug screen (fluorescent multivalent sialic acid probe)
pEC50: −log10 of the molar value.
Quick reference for pEC50 among some compounds
readout_name: pEC50

compound: CC(=O)N[C@H]1[C@H]([C@H](O)[C@H](O)CNC(=O)c2cc(C)c(O)c(C)c2)O[C@@](CCN2CCOC[C@@]23CCN(C(=O)C2(c4ccccc4)CC2)C3)(C(=O)O)C[C@@H]1O
censoring_sign: =
observed: 6.16
--
compound: Cc1cc(C(=O)NC[C@@H](O)C[C@H]2CC[C@@H](C)[C@](CCN3CCOC[C@@]34CCN(C(=O)OC(C)(C)C)C4)(C(=O)O)O2)cc2cc[nH]c12
censoring_sign: <
observed: 4.70
--
compound: CC(=O)N[C@H]1[C@H]2O[C@](C(=O)O)(C/C=C/COC[C@H](NC(=O)C3CCCOC3)COCCOc3c(C)cc(cc3C)C(=O)NC[C@@H](O)[C@H]2O)C[C@@H]1O (stereo partly shown)
censoring_sign: =
observed: 5.23
--
compound: CC(=O)N[C@H]1[C@H]([C@H](O)[C@H](O)CNC(=O)c2c[nH]c(C)c2)O[C@@](CCN2CCOC[C@@]23CCN(C(=O)OC(C)(C)C)C3)(C(=O)O)C[C@@H]1O
censoring_sign: =
observed: 7.47
--
compound: CC(=O)N[C@H]1[C@H]([C@H](O)[C@H](O)CNC(=O)c2cc(C)c(F)c(C)c2)O[C@@](CCN2CCOC[C@@]23CCN(C(=O)OC(C)(C)C)C3)(C(=O)O)C[C@@H]1O
censoring_sign: =
observed: 7.33
--
compound: Cc1cc(C(=O)NC[C@@H](O)[C@@H](O)[C@@H]2O[C@@](C/C=C/c3ccccc3)(C(=O)O)C[C@H](O)[C@H]2NC(=O)Cn2cc(C3CCCCC3)nn2)cc(C)c1O
censoring_sign: =
observed: 3.99
--
compound: CC(=O)N[C@H]1[C@H]([C@H](O)[C@H](O)CNC(=O)c2cc(C)c(O)c(C)c2)O[C@@](C/C=C/c2cccc(C3CCCN3C(=O)OC(C)(C)C)c2)(C(=O)O)C[C@@H]1O (stereo partly shown)
censoring_sign: =
observed: 5.18
--
compound: Cc1cc(C(=O)NCC(O)C[C@@H]2O[C@@](C/C=C/C3CCN(C(=O)OC(C)(C)C)C3)(C(=O)O)CCC2C)cc2cc[nH]c12 (single isomer, unassigned) [A-212]
censoring_sign: =
observed: 4.76
--
compound: CC(=O)N[C@H]1[C@H]([C@H](O)[C@H](O)CNC(=O)c2ccc3c(=O)n(C)cnc3c2)O[C@@](CCN2CCOC[C@@]23CCN(C(=O)OC(C)(C)C)C3)(C(=O)O)C[C@@H]1O
censoring_sign: =
observed: 6.22
--
compound: CC(=O)N[C@H]1[C@H]([C@H](O)[C@H](O)CNC(=O)c2cc(C)c(O)c(C)c2)O[C@@](C/C=C/c2cccc(CNC(=O)c3ccc4[nH]ccc4c3)c2)(C(=O)O)C[C@@H]1O [A-234]
censoring_sign: =
observed: 6.03

---

# system_tested: Recombinant Human Siglec-3/CD33 protein (His-CD33) (Homo sapiens (Human))
# measurement_description: Differential scanning fluorimetry (DSF) thermal shift assay
# Type: binding
# condition_info: difference in thermal melt of CD33 protein (0.5 μM) with 50 μM compound
# Method: In the DSF assay, as the temperature increases, the protein gets gradually unfolded, exposing hydrophobic regions in which a fluorescent dye binds causing the fluorescence signal to increase. […] Recombinant human CD33 protein (0.5 μM) was incubated under buffered conditions in the presence of SYPRO orange dye, a temperature gradient was applied and a thermogram was produced by monitoring the fluorescence. […]
The reader will find reported DSF (dTmD) values listed item by item below.

compound: CC(=O)N1CCC(C(=O)NCc2cccc(/C=C/C[C@]3(C(=O)O)C[C@H](O)[C@@H](NC(=O)Cn4cc(C5CCCCC5)nn4)[C@H]([C@H](O)[C@H](O)CNC(=O)c4cc(C)c(O)c(C)c4)O3)c2)CC1
system_tested: Recombinant Human Siglec-3/CD33 protein (His-CD33) (Homo sapiens (Human))
units_of_measure: °C
DSF (dTmD): 6.2
//
compound: Cc1cc(C(=O)NC[C@@H](O)[C@@H](O)[C@@H]2O[C@@](C/C=C/c3cccc(CNC(=O)C4C5OCCC[C@H]54)c3)(C(=O)O)C[C@H](O)[C@H]2NC(=O)Cn2cc(C3CCCCC3)nn2)cc(C)c1O (some centres unmarked)
system_tested: Recombinant Human Siglec-3/CD33 protein (His-CD33) (Homo sapiens (Human))
units_of_measure: °C
DSF (dTmD): 4.9

---

# system_tested: Recombinant Human Siglec-3/CD33 protein (His-CD33) (Homo sapiens (Human), UniProt P20138)
# Sequence (P20138 18-259): as above
# measurement_description: Differential scanning fluorimetry (DSF) thermal shift assay
# Format: binding
# condition_info: difference in thermal melt of CD33 protein (0.5 μM) with 50 μM compound
Recorded DSF (dTmD) determines the group label, using LOW: < 4 °C; MID: ≥ 4 °C and < 6 °C; HIGH: ≥ 6 °C

molecule: Cc1cc2cc(C)c1OCCOC[C@@H](NC(=O)C1CCCOC1)COC/C=C/C[C@]1(C(=O)O)C[C@H](O)[C@@H](NC(=O)Cn3cc(C4CCCCC4)nn3)[C@@H](O1)[C@H](O)[C@H](O)CNC2=O (stereo partly shown) [A-338]
discrete_label: MID
//
molecule: CC(=O)N[C@H]1[C@H]([C@H](O)[C@H](O)CNC(=O)c2cc(C)c(O)c(C)c2)O[C@@](C/C=C/c2cccc(CNC(=O)c3ccc4[nH]cnc4c3)c2)(C(=O)O)C[C@@H]1O
discrete_label: MID
//
molecule: CC(=O)NC1[C@H]([C@H](O)[C@H](O)CNC(=O)c2cc(C)c(O)c(C)c2)O[C@@](CC(=O)N2CCOC[C@]23CCN(C(=O)OC(C)(C)C)C3)(C(=O)O)C[C@@H]1O (stereo partly shown) [A-222]
discrete_label: HIGH
//
molecule: CC(=O)N[C@H]1[C@H]2O[C@](C(=O)O)(CC/C=C/CO[C@H]3C[C@H](CN3C(=O)C3CCCOC3)OCCOc3c(C)cc(cc3C)C(=O)NC[C@@H](O)[C@H]2O)C[C@@H]1O (stereo partly shown)
discrete_label: LOW
//
molecule: CC(=O)N[C@H]1[C@H]([C@H](O)[C@H](O)CNC(=O)c2cc(C)c(O)c(C)c2)O[C@@](CC2OC(C)(C)O[C@H]2c2ccc(F)c(N3CCCC3=O)c2)(C(=O)O)C[C@@H]1O (stereo partly shown)
discrete_label: HIGH
//
molecule: CC(=O)N[C@H]1[C@H]([C@H](O)[C@H](O)CNC(=O)c2cc(C)c(O)c(C)c2)O[C@@](C[C@@H]2COC[C@]3(CCN(C(=O)OC(C)(C)C)C3)N2)(C(=O)O)C[C@@H]1O [A-225]
discrete_label: HIGH
//
molecule: CC(=O)N[C@H]1[C@H]([C@H](O)[C@H](O)CNC(=O)c2cc(C)c(O)c(C)c2)O[C@@](C/C=C/c2cccc(CNC(=O)c3ccc4[nH]c(C(C)O)nc4c3)c2)(C(=O)O)C[C@@H]1O (stereo partly shown)
discrete_label: MID
//
molecule: CC(=O)N[C@H]1[C@H]([C@H](O)[C@H](O)CNC(=O)c2cc(C)c(O)c(C)c2)O[C@@](C/C=C/c2cc(CNC(=O)C3CCCOC3)ccc2C)(C(=O)O)C[C@@H]1O (stereo partly shown) [A-289]
discrete_label: MID
//
molecule: CC(=O)N[C@H]1[C@H]([C@H](O)[C@H](O)CNC(=O)c2cc(C)c(O)c(C)c2)O[C@@](CCN2CCOC[C@@]23CCN(C(=O)OC(C)(C)C)C3)(c2nn[nH]n2)C[C@@H]1O
discrete_label: LOW
//
molecule: Cc1cc(C(=O)NC[C@@H](O)[C@@H](O)[C@@H]2O[C@@](C/C=C/c3cccc(CNC(=O)C4CCCO4)c3)(C(=O)O)C[C@H](O)[C@H]2NC(=O)Cn2cc(C3CCCCC3)nn2)cc(C)c1O (stereo partly shown)
discrete_label: LOW

---

# system_tested: Recombinant Human Siglec-3/CD33 protein (His-CD33) (Homo sapiens (Human))
# measurement_description: Differential scanning fluorimetry (DSF) thermal shift assay
# Assay type: binding
# condition_info: difference in thermal melt of CD33 protein (0.5 μM) with 50 μM compound
Rule: DSF (dTmD) under 5 °C gives not met, otherwise met.

molecule: CC(=O)N[C@H]1[C@H]([C@H](O)[C@H](O)CNC(=O)c2cc(C)c(O)c(C)c2)O[C@@](CCN2CCOC[C@@]23CCN(C(=O)OC(C)(C)C)C3)(C(N)=O)C[C@@H]1O
discrete_label: not met
//
molecule: CC(=O)N[C@H]1[C@H]([C@H](O)[C@H](O)CNC(=O)c2cc(C)c(O)c(C)c2)O[C@@](C/C=C/c2cccc(CNC(=O)c3ccc4[nH]c(-c5cccn5-c5ncccn5)nc4c3)c2)(C(=O)O)C[C@@H]1O
discrete_label: met
//
molecule: CC(=O)N[C@H]1[C@H]([C@H](O)[C@H](O)CNC(=O)c2cc(C)c(O)c(C)c2)O[C@@](C[C@H]2COC[C@@]3(CCN(C(=O)NC(C)(C)C)C3)N2)(C(=O)O)C[C@@H]1O
discrete_label: met
//
molecule: CC(=O)N[C@H]1[C@H]([C@H](O)[C@H](O)CNC(=O)c2cc(C)c(O)c(C)c2)O[C@@](C/C=C/c2cccc(CNC(=O)C3CCCOC3)c2)(C(=O)O)C[C@@H]1O (some centres unmarked)
discrete_label: not met
//
molecule: CC(=O)N[C@H]1[C@H]([C@H](O)[C@H](O)CNC(=O)c2cc(C)c(O)c(C)c2)O[C@@](C/C=C/c2cccc(CNC(=O)c3cccc(Nc4nccs4)c3)c2)(C(=O)O)C[C@@H]1O
discrete_label: met
